Tested on: Saccharomyces cerevisiae;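 note: PSI is a weighted mean of sequencing reads over stability bins, variants kept only with over 10 reads, mCherry proximal and sfGFP distal, peptide attached via GGGS linker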
procedureDetails: protein stability index of tFT-peptide fusion (C-terminal peptide) (PSI (0-1 scale)); higher = more stable (slower turnover)
studyConditions: genetic background: das1 deletion; temperature: 30 C
The entries below come with measured protein stability index values attached.
measure: protein stability index

{"chainSequence": "RLSTPFTVNHFI", "measure": "protein stability index", "quantitativeReadout": 0.696}
{"chainSequence": "TKKGQTRPSRTD", "measure": "protein stability index", "quantitativeReadout": 0.642}
{"chainSequence": "RLLSIFKILHVG", "measure": "protein stability index", "quantitativeReadout": 0.638}
{"chainSequence": "LFSFFVFFFLLD", "measure": "protein stability index", "quantitativeReadout": 0.364}
{"chainSequence": "FFVMVFTVEVFV", "measure": "protein stability index", "quantitativeReadout": 0.0929}
{"chainSequence": "TVRLPLILPCVL", "measure": "protein stability index", "quantitativeReadout": 0.421}
{"chainSequence": "ELDVRPMVFLVA", "measure": "protein stability index", "quantitativeReadout": 0.346}
{"chainSequence": "VCPCCPYVMIAG", "measure": "protein stability index", "quantitativeReadout": 0.498}
{"chainSequence": "ESRDRRVGIANW", "measure": "protein stability index", "quantitativeReadout": 0.647}
{"chainSequence": "FLWAVSLCRSLV", "measure": "protein stability index", "quantitativeReadout": 0.548}
